Taken from the supplement of paper PMC8728848.

- system-under-test: Fuc(a1-2)[Gal(a1-3)]Gal(b1-3)GlcNAc(b1-2)Man(a1-3)[Fuc(a1-2)[Gal(a1-3)]Gal(b1-3)GlcNAc(b1-2)Man(a1-6)]Man(b1-4)GlcNAc(b1-4)[Fuc(a1-6)]GlcNAc
- test-method-notes: glycan array binding signal (z-score within array); higher = stronger binding
- measurement-parameters: glycan notation: IUPAC condensed, linker removed
Shown is part of a subset that was picked to be rich in the strongest signals.
measured-parameter: glycan array binding signal (z-score)
Just the number, please, no unit attached.

binder	glycan array binding signal (z-score)
CD72 ectodomain (Homo sapiens), P21854 (protein) RYLQVSQQLQQTNRVLEVTNSSLRQQLRLKITQLGQSAEDLQGSRRELAQSQEALQVEQRAHQAAEGQLQACQADRQKTKETLQSEEQQRRALEQKLSNMENRLKPFFTCGSADTCCPSGWIMHQKSCFYISLTSKNWQESQKQCETLSSKLATFSEIYPQSHSYYFLNSLLPNGGSGNSYWTGLSSNKDWKLTDDTQRTRTYAQSSKCNKVHKTWSWWTLESESCRSSLPYICEMTAFRFPD	2.7

Below: the item to evaluate.
Query (binder): Intelectin-1a (Mus musculus) (protein) AEWSHPQFEKAEENLDTNRWGNSFFSSLPRSCKEIKQEHTKAQDGLYFLRTKNGVIYQTFCDMTTAGGGWTLVASVHENNMRGKCTVGDRWSSQQGNRADYPEGDGNWANYNTFGSAEAATSDDYKNPGYFDIQAENLGIWHVPNKSPLHNWRKSSLLRYRTFTGFLQHLGHNLFGLYKKYPVKYGEGKCWTDNGPALPVVYDFGDARKTASYYSPSGQREFTAGYVQFRVFNNERAASALCAGVRVTGCNTEHHCIGGGGFFPEGNPVQCGDFASFDWDGYGTHNGYSSSRKITEAAVLLFYR ; field requested: glycan array binding signal (z-score)
3.73
